Data origin, for the record: ChEMBL document CHEMBL1201862

System: NCI-H522
protocol.text: NCI tumour cell line growth inhibition, 48 h
Activity calls are given as the source filed them. Rule as the data show it: active = GI50 up to about 1.1 µM and inactive = higher.
Your answer must be one of the following: T for active, F for inactive

compound	qualitative.label
O=S(=O)(O)c1ccc2c(/N=N/c3cccc4ccccc34)c(O)ccc2c1	F

So what was the verdict on CC(=O)OC1CC2Oc3ccc(C)cc3C(C)(O2)C1=O (centres undefined) in this test?
F

Recorded call for CCOc1cc(CCNC)c2c(ccc3ccc(OC)c(O)c32)c1OC ?
F

Hello, I am checking results. What call was entered for CN1CCC23c4c5ccc(O)c4OC2c2[nH]c4ccccc4c2CC3(O)C1C5 (centres undefined) ?
F

Fill in: this test's call for C[C@]12OC(=O)[C@]3(O)CC[C@H]4[C@@H](C[C@@H](O)[C@@]5(Cl)CC=CC(=O)[C@]45C)[C@]45OCC6C(=O)O[C@@H]1C[C@@]6(C)[C@H](C4=O)[C@@]32O5 (some centres undefined) is ___
T

Just curious, what result did COC1CCC(OC)C(C2(C3CC(OC)CCC3OC)OC(=O)c3ccccc32)C1 (centres undefined) get here?
F

For this compound, state the assay outcome: C=C(Cl)C(Br)(CBr)CCC(Br)C(C)(C)Br (centres undefined)
F

Test call for this compound, please: O=c1cc(-c2ccccc2)oc2cc(OCC(O)COc3ccc4c(=O)cc(-c5ccccc5)oc4c3)ccc12
F

Identify the outcome logged in this assay for the compound shown: NC(=S)c1cccc(C2Nc3ccccc3O2)c1 (centres undefined)
F

###

Test system: HOP-62
protocol.text: NCI tumour cell line growth inhibition, 48 h
Active and inactive are the calls of the source. Rule as the data show it: active = GI50 up to about 1.1 µM and inactive = higher.
observable: GI50

Solved entries:
> print(dat)
                                   molecule                  val
1  CC1=C(C#N)C(=C(C#N)C#N)OC1(C)Cc1ccccc1 (configuration not stated)   58.9 µM (inactive)
2  O=[N+]([O-])c1ccc(N2N=C(c3ccc(NCc4nc5ccccc5[nH]4)cc3)CC2c2ccco2)cc1 (configuration not stated)   37.2 µM (inactive)
3  c1ccc(C(CCN2CCCC2)c2ccccn2)cc1 (configuration not stated)  > 100 µM (inactive)
4  Cc1ccc2nc(Cl)c(/C=N/N3C(=O)/C(=C/c4cccc([N+](=O)[O-])c4)N=C3c3ccccc3)cc2c1   50.2 µM (inactive)
5   O=C(CCN1CCCC1)Nc1ccc2sc3ccccc3c(=O)c2n1   12.3 µM (inactive)

GI50 recorded for this molecule, Cc1cc(S(=O)(=O)Nc2nnc3cc(C(F)(F)F)cc(C)n23)c(S)cc1Cl , is 35.2 µM (inactive)

# molecule O=C(O)/C(Cl)=C(\Cl)C(=O)Nc1ccc(Cl)c(Cl)c1Cl ; its GI50 = 29.5 µM (inactive)

###

Test system: COLO 205
protocol.text: NCI tumour cell line growth inhibition, 48 h
Calls of active or inactive are those of the source. Cut-off read from the data, not from the text of the source: active = GI50 up to about 1.1 µM and inactive = higher.
Write down one outcome, taken from YES (active), NO (inactive)

Check out these entries, answers already filled in.
> print(dat)
                                   molecule  qualitative.label
1   CCCCN(CCCC)C(=O)C(=O)CC(=O)c1ccc(Br)cc1                 NO
2  COCCOc1cc(C)cc(/C=C(C)/C=C/C2=C(C)CCCC2(C)C)n1                 NO
3  Clc1cccc(Cl)c1C1SCc2nc3cc4ccccc4cc3n21 (stereo not given)                 NO
4  C=CCCN1CCc2c([nH]c3ccccc23)C1C(=O)O (stereo not given)                 NO
5  OCCCCCCOc1ccc(-c2cc(-c3ccccn3)nc(-c3ccccn3)c2)cc1                YES

Which outcome did this test record for the molecule CCc1nnc(S)n1/N=C/c1ccc(-c2ccc([N+](=O)[O-])cc2)o1 ?
NO

For CN(C)c1ccc(C2=C([O-])c3cc(-[n+]4ccccc4)ccc3C2=O)cc1 , which call appears in the assay record?
NO

Recorded call for COc1ccc(/N=C(C)/C(C)=N/c2ccc(OC)cc2)cc1 ?
NO

Status in this test for CC1(C)CCC[C@@]2(C)C1CC[C@@]1(CO)O[C@H](C3=CC(=O)OC3O)C[C@H]12 (stereo not given in full) ?
NO

What is the recorded call for this molecule in the test? CC(=O)c1c2c(cc3c1CC1(Cc4cc5c(cc4C1)C(=O)CCC5)C3)CCCC2 (stereo not given)
NO
